# experiment notes: melting temperature; UV melt of duplexes
# experimental parameters: sodium 0.22 M; strand 2 µM
Kindly return label 1 if reported Tm is no lower than 70 °C; return label 0 if it is lower.

Completed entries (count: 4):
substance: ACCGACGACGCTGATCCGAT+ATCGGATCAGCGTCGTCGGT ((((((((((((((((((((+))))))))))))))))))))
label class: label 1
--
substance: CGAGCTTATCCCTATCCCTC+GAGGGATAGGGATAAGCTCG ((((((((((((((((((((+))))))))))))))))))))
label class: label 0
--
substance: TCGGAGAAATCACTGAGCTGCCTGAGAAGA+TCTTCTCAGGCAGCTCAGTGATTTCTCCGA ((((((((((((((((((((((((((((((+))))))))))))))))))))))))))))))
label class: label 1
--
substance: GTTATTCCGCAGTCCGATGGCAGCAGGCTC+GAGCCTGCTGCCATCGGACTGCGGAATAAC ((((((((((((((((((((((((((((((+))))))))))))))))))))))))))))))
label class: label 1

q: Check this substance for Tm at or above 70 °C: GATATAGCAAAATTCTAAGTTAATA+TATTAACTTAGAATTTTGCTATATC (((((((((((((((((((((((((+)))))))))))))))))))))))))
a: label 0

q: Check this substance for Tm at or above 70 °C: GTCCACGCCCGGTGCGACGG+CCGTCGCACCGGGCGTGGAC ((((((((((((((((((((+))))))))))))))))))))
a: label 1

q: Check this substance for Tm at or above 70 °C: AGCAAGTCGAGCAGGGCCTACGTTT+AAACGTAGGCCCTGCTCGACTTGCT (((((((((((((((((((((((((+)))))))))))))))))))))))))
a: label 1

q: Check this substance for Tm at or above 70 °C: CCACTATACCATCTATGTAC+GTACATAGATGGTATAGTGG ((((((((((((((((((((+))))))))))))))))))))
a: label 0

q: Check this substance for Tm at or above 70 °C: TGATTCTACCTATGTGATTT+AAATCACATAGGTAGAATCA ((((((((((((((((((((+))))))))))))))))))))
a: label 0

The measured values listed here are drawn from the array DNA melting data of Ke et al..
